Overview of reported cytotoxicity at 70.5 h across a group of molecules:
Test: Human HepG2 cell viability assay in 384 well format
Assay type: toxicity, cell-based
Design: dose 125 nL, time 70.5 hour; concentration not given beside the values
Settings: HepG2 cells, read-out: Inhibition
// return numeric value only (unit: %, not printed)

[[record]]
molecule = "CC(=O)N1CCC(c2ccnc(Nc3cncnc3)n2)CC1"
observed = -8.15


IN: Give me measured cytotoxicity at 70.5 h, please, for this molecule: CN(C(=O)CNc1ccc(C#N)cc1)C1CCN(c2ccccn2)CC1
OUT: -10

IN: Return cytotoxicity at 70.5 h for the following molecule: COCCN1CCC(c2cncc(-c3cccc(Cl)c3)n2)CC1
OUT: -5.78

IN: Determine from records and report cytotoxicity at 70.5 h for CN(CC(=O)NCC(F)(F)F)C(=O)c1ccc(=O)[nH]c1
OUT: -8.21
